Biological target: T1, human CD74 (human, UniProt P04233 1-296)
T1 sequence (looked up): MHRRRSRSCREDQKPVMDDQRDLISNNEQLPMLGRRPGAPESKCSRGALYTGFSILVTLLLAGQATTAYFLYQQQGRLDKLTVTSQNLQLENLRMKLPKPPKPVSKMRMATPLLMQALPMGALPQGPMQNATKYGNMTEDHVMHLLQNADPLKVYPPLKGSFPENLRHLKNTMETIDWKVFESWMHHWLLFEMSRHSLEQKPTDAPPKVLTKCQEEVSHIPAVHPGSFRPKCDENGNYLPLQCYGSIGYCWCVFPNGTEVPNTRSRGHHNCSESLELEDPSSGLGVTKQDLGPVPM
Experiment: cell-based or functional assay
# Lookup of reported EC50, GILZ mRNA, HUT-78 cells keyed by entry
measured.property: EC50, GILZ mRNA, HUT-78 cells (µg/mL)

binder: ADC 12-4 (anti-hCD74 (LL1) conjugated to Linker 1-4) (antibody, human IgG1, kappa, V domains shown, position 121 is para-azido phenylalanine (pAzF), conjugated to dexamethasone drug-linker 1-4) VH: QVQLQQSGSELKKPGASVKVSCKASGYTFTNYGVNWIKQAPGQGLQWMGWINPNTGEPTFDDDFKGRFAFSLDTSVSTAYLQISSLKADDTAVYFCSRSRGKNEAWFAYWGQGSLVTVSS VL: DIQLTQSPLSLPVTLGQPASISCRSSQSLVHRNGNTYLHWFQQRPGQSPRLLIYTVSNRFSGVPDRFSGSGSGTDFTLKISRVEAEDVGVYFCSQSSHVPPTFGAGTRLEIKR
sign: =
val: 1.08
--
binder: ADC 12-6 (anti-hCD74 (LL1) conjugated to Linker 3-4) (antibody, human IgG1, kappa, V domains shown, position 121 is para-azido phenylalanine (pAzF), conjugated to dexamethasone drug-linker 3-4) VH: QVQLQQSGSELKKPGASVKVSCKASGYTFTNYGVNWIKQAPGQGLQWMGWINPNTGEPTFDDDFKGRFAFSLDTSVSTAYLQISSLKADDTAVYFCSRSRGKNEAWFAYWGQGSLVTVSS VL: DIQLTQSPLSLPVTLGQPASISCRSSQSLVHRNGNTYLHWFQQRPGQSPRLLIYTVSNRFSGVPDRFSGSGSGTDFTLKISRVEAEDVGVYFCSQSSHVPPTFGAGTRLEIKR
sign: =
val: 1.87
--
binder: ADC 12-10 (anti-hCD74 (LL1) conjugated to Linker 9-4) (antibody, human IgG1, kappa, V domains shown, position 121 is para-azido phenylalanine (pAzF), conjugated to budesonide drug-linker 9-4) VH: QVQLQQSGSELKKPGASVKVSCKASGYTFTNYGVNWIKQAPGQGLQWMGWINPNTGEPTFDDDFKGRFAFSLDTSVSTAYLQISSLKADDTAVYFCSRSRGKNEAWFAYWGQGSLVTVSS VL: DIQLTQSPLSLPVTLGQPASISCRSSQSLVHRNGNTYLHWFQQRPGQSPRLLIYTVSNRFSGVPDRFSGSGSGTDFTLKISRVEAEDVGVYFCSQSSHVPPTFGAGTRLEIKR
sign: =
val: 0.2
--
binder: ADC 12-7 (anti-hCD74 (LL1) conjugated to Linker 4-3) (antibody, human IgG1, kappa, V domains shown, position 121 is para-azido phenylalanine (pAzF), conjugated to dexamethasone drug-linker 4-3) VH: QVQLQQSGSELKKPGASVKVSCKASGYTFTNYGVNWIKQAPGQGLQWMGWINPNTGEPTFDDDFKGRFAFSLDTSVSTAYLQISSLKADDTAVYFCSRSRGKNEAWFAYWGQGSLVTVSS VL: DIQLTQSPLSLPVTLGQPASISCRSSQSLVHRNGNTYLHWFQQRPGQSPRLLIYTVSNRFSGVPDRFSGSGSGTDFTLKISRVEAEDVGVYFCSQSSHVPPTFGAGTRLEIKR
sign: >
val: 30
--
binder: ADC 12-9 (anti-hCD74 (LL1) conjugated to Linker 6-2) (antibody, human IgG1, kappa, V domains shown, position 121 is para-azido phenylalanine (pAzF), conjugated to dexamethasone drug-linker 6-2) VH: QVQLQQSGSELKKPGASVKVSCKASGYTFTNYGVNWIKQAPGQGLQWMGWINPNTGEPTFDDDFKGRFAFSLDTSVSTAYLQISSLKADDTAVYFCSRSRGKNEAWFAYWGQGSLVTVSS VL: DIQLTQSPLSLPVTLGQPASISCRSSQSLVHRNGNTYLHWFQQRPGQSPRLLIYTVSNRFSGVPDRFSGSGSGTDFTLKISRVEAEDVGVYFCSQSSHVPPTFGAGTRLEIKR
sign: >
val: 30
--
binder: ADC 12-5 (anti-hCD74 (LL1) conjugated to Linker 2-7) (antibody, human IgG1, kappa, V domains shown, position 121 is para-azido phenylalanine (pAzF), conjugated to dexamethasone drug-linker 2-7) VH: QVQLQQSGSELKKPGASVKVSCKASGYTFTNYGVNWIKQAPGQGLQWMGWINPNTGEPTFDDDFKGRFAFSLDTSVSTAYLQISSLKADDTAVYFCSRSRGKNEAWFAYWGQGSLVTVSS VL: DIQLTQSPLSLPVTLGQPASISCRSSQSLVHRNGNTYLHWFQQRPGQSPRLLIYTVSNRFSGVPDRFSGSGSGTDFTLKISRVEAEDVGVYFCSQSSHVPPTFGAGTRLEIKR
sign: =
val: 1.32
